# Species on record: Oryctolagus cuniculus
# ASSAY DETAILS: Inhibition of rabbit skeletal muscle sarcoplasmic and endoplasmic reticulum [Ca(2+)]-dependent ATPases(SERCA) activity
ENDPOINT: ID50 (nM (mg SR protein)-1)
Format: numeric value only, no unit, no commentary.

1. C/C=C(/C)C(=O)O[C@H]1C(C)=C2[C@H]([C@@H]1OC(=O)CCCCCCC)[C@@](C)(OC(C)=O)C[C@H](OC(=O)CCCCCN)[C@@]1(O)[C@H]2OC(=O)[C@@]1(C)O ... 1330
2. C/C=C(/C)C(=O)O[C@H]1C(C)=C2[C@H]([C@@H]1OC(=O)CCCCCCC)[C@@](C)(OC(C)=O)C[C@H](OC(=O)CCCCCCCCCCCN)[C@@]1(O)[C@H]2OC(=O)[C@@]1(C)O ... 35
3. C/C=C(/C)C(=O)O[C@H]1C(C)=C2[C@H]([C@@H]1OC(=O)CCCCCCC)[C@@](C)(OC(C)=O)C[C@H](OC(=O)CCCCCCCCCCCNC(=O)[C@@H](N)CO)[C@@]1(O)[C@H]2OC(=O)[C@@]1(C)O ... 10.3

Record C/C=C(/C)C(=O)O[C@H]1C(C)=C2[C@H]([C@@H]1OC(=O)CCCCCCC)[C@@](C)(OC(C)=O)C[C@H](OC(=O)CCCCCCN)[C@@]1(O)[C@H]2OC(=O)[C@@]1(C)O . Reported ID50 (nM (mg SR protein)-1): 1210

Record C/C=C(/C)C(=O)O[C@H]1C(C)=C2[C@H]([C@@H]1OC(=O)CCCCCCC)[C@@](C)(OC(C)=O)C[C@H](OC(=O)CCc1ccc(NC(=O)[C@@H](N)CC(C)C)cc1)[C@@]1(O)[C@H]2OC(=O)[C@@]1(C)O . Reported ID50 (nM (mg SR protein)-1): 466
